Data origin: patent US20140356358A1

Listed here are binders together with their documented ELISA score.
- targetEntity: T1, human neonatal Fc receptor (hFcRn) (human, UniProt P55899 24-290; P61769 21-119)
- T1 construct: Biotinylated in the ELISA, Octet and yeast assays; also called human FcRn; huFcRn
- T1 sequence (P55899 24-290 limits assumed, chain 1 of 2): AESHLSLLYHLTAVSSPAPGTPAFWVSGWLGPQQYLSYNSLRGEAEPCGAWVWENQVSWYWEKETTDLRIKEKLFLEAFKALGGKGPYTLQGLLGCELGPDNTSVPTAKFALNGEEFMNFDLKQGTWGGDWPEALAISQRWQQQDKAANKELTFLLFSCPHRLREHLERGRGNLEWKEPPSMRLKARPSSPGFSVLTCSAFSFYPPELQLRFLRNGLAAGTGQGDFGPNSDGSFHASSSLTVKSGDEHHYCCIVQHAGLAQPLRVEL
- T1 sequence (P61769 21-119 limits assumed, chain 2 of 2): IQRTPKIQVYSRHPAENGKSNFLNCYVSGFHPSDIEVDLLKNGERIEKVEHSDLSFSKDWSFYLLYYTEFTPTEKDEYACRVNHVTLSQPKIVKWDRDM
- assay: phage ELISA pH 6;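 note: higher score means stronger binding and above about 3 to 5 exceeds background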
Output: the number by itself.

binder: L5 isolate with insertion SEQ ID NO: 435 (other) EPKSCDKTHTCPPCPAPELLGGPSVFLFPPKPKDTLMISRTPEVTCVVVDVSHEDPEVKFNWYVDGVEVHNAKTKPREEQYNSTYRVVSVLTVLHQDWLNGKEYKCKVSNKALPAPIEKTISKAKGQPREPQVYTLPPSRDELTKNQVSLTCLVKGFYPSDIAVEWESNGGCKRENPYCGGGQPENNYKTTPPVLDSDGSFFLYSKLTVDKSRWQQGNVFSCSVMHEALHNHYTQKSLSLSPGK
obsValue: 55.6

binder: L5 isolate with insertion SEQ ID NO: 486 (other) EPKSCDKTHTCPPCPAPELLGGPSVFLFPPKPKDTLMISRTPEVTCVVVDVSHEDPEVKFNWYVDGVEVHNAKTKPREEQYNSTYRVVSVLTVLHQDWLNGKEYKCKVSNKALPAPIEKTISKAKGQPREPQVYTLPPSRDELTKNQVSLTCLVKGFYPSDIAVEWESNGGCDTIGWFCGGGQPENNYKTTPPVLDSDGSFFLYSKLTVDKSRWQQGNVFSCSVMHEALHNHYTQKSLSLSPGK
obsValue: 26.9

Query: What measured ELISA score goes with L6B isolate with insertion SEQ ID NO: 410 (other) EPKSCDKTHTCPPCPAPELLGGPSVFLFPPKPKDTLMISRTPEVTCVVVDVSHEDPEVKFNWYVDGVEVHNAKTKPREEQYNSTYRVVSVLTVLHQDWLNGKEYKCKVSNKALPAPIEKTISKAKGQPREPQVYTLPPSRDELGGCLKGMHGSACGGTKNQVSLTCLVKGFYPSDIAVEWESNGQPENNYKTTPPVLDSDGSFFLYSKLTVDKSRWQQGNVFSCSVMHEALHNHYTQKSLSLSPGK ?
Reply: 68.9
